system: Pseudomonas aeruginosa; experiment: Antimicrobial activity against Pseudomonas aeruginosa PU21 by agar dilution method; assay type: functional
Measurement name: MIC (µg/mL)
Return type: number; implicit unit µg/mL.

Please review the entries below; each comes with its answer.
Molecule: C[C@@H](O)[C@H]1C(=O)N2C(C(=O)O)=C(S[C@@H]3CN[C@H](C(=O)Nc4cccc(C(=O)O)c4)C3)[C@H](C)[C@H]12 [ERTAPENEM]
Target: Pseudomonas aeruginosa
Reported measurement: 8

Molecule: CC(C)(O/N=C(\C(=O)N[C@@H]1C(=O)N2C(C(=O)[O-])=C(C[n+]3ccccc3)CS[C@H]12)c1csc(N)n1)C(=O)O [CEFTAZIDIME]
Target: Pseudomonas aeruginosa
Reported measurement: 1

Molecule: C[C@@H](O)[C@H]1C(=O)N2C(C(=O)O)=C(SCCNC=N)C[C@H]12 [IMIPENEM ANHYDROUS]
Target: Pseudomonas aeruginosa
Reported measurement: 2

// lookup MIC for C[C@@H](O)[C@H]1C(=O)N2C(C(=O)O)=C(S[C@@H]3CN[C@H](C(=O)N(C)C)C3)[C@H](C)[C@H]12 [MEROPENEM]
0.5
